Reported IC50 values for a set of compounds
Target or system: PI 3-kinase beta (Homo sapiens, UniProt P42338)
Sequence (P42338 whole entry): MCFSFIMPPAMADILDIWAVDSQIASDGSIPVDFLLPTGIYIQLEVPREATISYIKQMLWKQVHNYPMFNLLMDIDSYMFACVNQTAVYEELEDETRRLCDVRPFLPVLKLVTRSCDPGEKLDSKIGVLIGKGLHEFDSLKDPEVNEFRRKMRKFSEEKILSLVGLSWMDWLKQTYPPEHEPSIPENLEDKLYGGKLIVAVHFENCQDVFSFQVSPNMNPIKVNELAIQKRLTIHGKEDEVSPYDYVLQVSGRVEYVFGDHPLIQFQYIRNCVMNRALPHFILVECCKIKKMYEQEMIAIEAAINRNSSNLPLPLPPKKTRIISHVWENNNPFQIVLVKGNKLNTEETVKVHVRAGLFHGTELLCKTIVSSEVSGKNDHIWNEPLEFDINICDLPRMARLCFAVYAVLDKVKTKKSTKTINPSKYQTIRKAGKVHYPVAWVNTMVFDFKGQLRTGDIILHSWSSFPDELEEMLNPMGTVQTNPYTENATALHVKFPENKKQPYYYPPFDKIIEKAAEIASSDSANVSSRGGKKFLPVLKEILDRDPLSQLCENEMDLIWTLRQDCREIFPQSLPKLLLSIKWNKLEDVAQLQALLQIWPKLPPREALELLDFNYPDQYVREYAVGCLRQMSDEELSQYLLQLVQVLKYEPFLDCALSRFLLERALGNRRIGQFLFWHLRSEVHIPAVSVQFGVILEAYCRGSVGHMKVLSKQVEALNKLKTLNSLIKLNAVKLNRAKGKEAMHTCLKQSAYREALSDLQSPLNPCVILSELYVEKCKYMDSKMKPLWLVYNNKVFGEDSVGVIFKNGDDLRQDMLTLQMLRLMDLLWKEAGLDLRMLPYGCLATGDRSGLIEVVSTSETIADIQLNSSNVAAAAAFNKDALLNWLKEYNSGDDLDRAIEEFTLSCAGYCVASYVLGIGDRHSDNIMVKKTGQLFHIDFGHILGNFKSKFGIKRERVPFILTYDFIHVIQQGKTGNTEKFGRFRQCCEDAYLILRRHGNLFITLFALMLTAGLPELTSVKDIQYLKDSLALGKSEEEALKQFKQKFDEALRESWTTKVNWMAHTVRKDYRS
Sequence (Q63787 whole entry partner): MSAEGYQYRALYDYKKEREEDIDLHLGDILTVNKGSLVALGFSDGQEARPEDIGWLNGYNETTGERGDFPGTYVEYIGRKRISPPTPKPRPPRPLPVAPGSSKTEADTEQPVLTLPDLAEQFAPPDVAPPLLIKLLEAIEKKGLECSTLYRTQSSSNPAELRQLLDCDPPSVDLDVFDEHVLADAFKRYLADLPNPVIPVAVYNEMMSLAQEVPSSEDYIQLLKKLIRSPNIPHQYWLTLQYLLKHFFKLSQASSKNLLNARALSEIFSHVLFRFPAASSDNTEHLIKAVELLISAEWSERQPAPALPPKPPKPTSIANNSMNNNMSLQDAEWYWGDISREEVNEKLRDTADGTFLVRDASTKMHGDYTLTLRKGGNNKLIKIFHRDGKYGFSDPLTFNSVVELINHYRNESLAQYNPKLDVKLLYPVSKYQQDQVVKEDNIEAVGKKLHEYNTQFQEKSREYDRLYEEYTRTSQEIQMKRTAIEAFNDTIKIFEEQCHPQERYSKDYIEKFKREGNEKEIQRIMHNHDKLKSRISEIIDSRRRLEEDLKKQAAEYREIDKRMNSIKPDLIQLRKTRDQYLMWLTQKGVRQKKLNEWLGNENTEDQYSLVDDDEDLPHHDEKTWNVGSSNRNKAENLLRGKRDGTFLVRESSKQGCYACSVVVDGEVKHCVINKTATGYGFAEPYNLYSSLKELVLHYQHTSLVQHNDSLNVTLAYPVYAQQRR
Protocol: Cellular assay I1, p-Akt (S473) in Rat-1 cells, Surefire format
Assay type: cell-based
Condition summary: non-asterisked data: version I1 (Surefire format), Rat-1 cells; read-out: Assay I PI3Kβ IC50
Measure name: IC50

1) Cc1nnc(-c2nc(-c3cc(S(=O)(=O)N[C@H]4CC[C@H](O)CC4)ccc3C)cnc2N)o1    > 10 µM
2) CCN1CCC[C@H]1CNS(=O)(=O)c1ccc(C)c(-c2cnc(N)c(-c3cn(C)nc3C)n2)c1    > 10 µM
3) Cc1cc(-c2nc(-c3cc(S(=O)(=O)N[C@H]4CC[C@@H](O)CC4)ccc3C)cnc2N)ccn1    > 10 µM
4) Cc1ccc(S(=O)(=O)NCC(C)(C)O)cc1-c1cnc(N)c(-c2cnn(CC(F)(F)F)n2)n1    > 3 µM

Data provenance is patent US10004732B2.
